B1: TPR t1 (parent)
chain: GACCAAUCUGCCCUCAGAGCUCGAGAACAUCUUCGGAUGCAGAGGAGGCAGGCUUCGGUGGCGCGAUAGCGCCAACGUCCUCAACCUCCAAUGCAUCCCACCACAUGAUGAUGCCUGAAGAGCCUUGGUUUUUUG

variants of: B1; test: polymerase ribozyme fitness, log enrichment relative to wild type (log ratio); higher = more active; in vitro selection for triplet polymerase activity
Note that class boundaries on polymerase ribozyme fitness (log ratio) are 1 = under -2, 2 = from -2 up to -0.4, 3 = -0.4 and over

>>> group_label("U9G A83G G93A C102A C123U")
1

Q: Given C4U U7G C11G C13A C56U U87A U112A , name the class its polymerase ribozyme fitness (log ratio) places it in.
Result: 3

Q: Here is the next variant: C8U C12G
Result: 3

Q: Here is the next variant: G93U G117U
Result: 1

Q: Here is the next variant: C20A A27G C40G U55C G71C
Result: 1

Q: Here is the next variant: U38A U132C
Result: 3

Q: Here is the next variant: A5C A74C
Result: 2

Q: Here is the next variant: C70A C104A
Result: 1

Q: Here is the next variant: A37G A84C
Result: 2
